system: MDA-MB-435 melanoma; assay: NCI-60 one-dose screen, 48 h (100 = growth as untreated, 0 = no growth, -100 = all killed); conditions: 10 µM unless noted
Compounds without any hit were thinned out: in the full panel of roughly 83,000, 20% have a hit.

compound: O=C1/C(=C/c2ccc([N+](=O)[O-])cc2)Oc2ccc(O)cc21
growth, %: 95
--
compound: CCCCOC(=O)C1OC(Oc2ccc3c(C)cc(=O)oc3c2)[C@@H](OC(C)=O)C(OC(C)=O)C1OC(C)=O (stereo partly specified)
growth, %: 101
--
compound: Oc1cccc(Nc2nc(-c3ccccn3)cs2)c1
growth, %: 105
--
compound: COC(=O)c1ccc(C(=O)Nc2ccccc2N)cc1
growth, %: 77.7
--
compound: Cc1nn(-c2ccccc2)c2nc3nc4c(c(N)c3c(-c3ccc(Cl)cc3)c12)CCCC4
growth, %: 97
--
compound: NC1=NC(c2ccccc2OS(=O)(=O)c2ccc(Br)cc2)n2c(nc3ccccc32)N1 (stereo unspecified)
growth, %: 73.1
--
compound: Clc1nc(-c2ccccn2)nc2sc3c(c12)CCCCCC3
growth, %: 91.4
--
compound: OB(O)c1ccccc1
growth, %: 109
--
compound: Cn1c2c(cc(S(=O)(=O)c3ccccc3)c1=O)CCc1c-2cnn1-c1ccccc1Cl
growth, %: 100
--
compound: CC1(C)N=C(N)N=C(N)N1c1cccc(OCCOc2cccc([N+](=O)[O-])c2)c1
growth, %: 17.8
--
compound: O=c1oc2ccccc2cc1-c1csc(N=Nc2c(O)[nH]c3ccc(Cl)cc23)n1
growth, %: 98.9

The origin of these recorded values is PubChem BioAssay (NCI).
